Hey, just so you know, these numbers are from patent US20060247320A1.

- target.of.assay: KSP motor domain (Homo sapiens, UniProt P52732)
- Sequence (P52732 18-359 limits assumed): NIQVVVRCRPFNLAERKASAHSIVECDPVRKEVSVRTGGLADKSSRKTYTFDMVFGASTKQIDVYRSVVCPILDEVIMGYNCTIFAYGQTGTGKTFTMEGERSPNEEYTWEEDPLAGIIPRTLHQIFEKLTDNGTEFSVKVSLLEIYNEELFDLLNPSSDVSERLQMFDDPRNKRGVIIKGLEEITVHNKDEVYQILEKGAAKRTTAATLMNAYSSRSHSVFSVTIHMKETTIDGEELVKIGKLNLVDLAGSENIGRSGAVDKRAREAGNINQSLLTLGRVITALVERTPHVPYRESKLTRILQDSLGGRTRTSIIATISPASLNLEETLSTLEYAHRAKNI
- measurement.notes: biochemical
- test.settings: KSP inhibitory activity, end-point assay; class symbols (Table 1); read-out: IC50
pIC50: −log10 of the molar value.
# pIC50 annotations

Below are worked cases with known answers.
compound: CC(C)(C)C1CCc2nc3sc(C(=O)N[C@H]4CCC[C@@H]4O)cc3cc2C1 (stereo partly drawn)
target.of.assay: KSP motor domain (Homo sapiens, UniProt P52732)
pIC50: 5.00 to 6.00

compound: CC(C)(C)C1CCc2nc3sc(C(=O)NC(CN)c4ccccc4)cc3cc2C1 (stereo not drawn)
target.of.assay: KSP motor domain (Homo sapiens, UniProt P52732)
pIC50: > 7.00

compound: CC(C)(C)C1CCc2nc3sc(C(=O)N[C@H](CO)Cc4ccc(O)cc4)cc3cc2C1 (stereo partly drawn)
target.of.assay: KSP motor domain (Homo sapiens, UniProt P52732)
pIC50: < 5.00

compound: CC(C)(C)C1CCc2nc3sc(C(=O)O)cc3cc2C1 (stereo not drawn)
target.of.assay: KSP motor domain (Homo sapiens, UniProt P52732)
pIC50: < 5.00

compound: CC(C)=C/C=C1\CCc2nc3sc(C#N)c(N)c3cc2C1
target.of.assay: KSP motor domain (Homo sapiens, UniProt P52732)
pIC50: < 5.00

compound: CC[C@H](NC(=O)c1cc2cc3c(nc2s1)CCC(C(C)(C)C)C3)C(=N)N (stereo partly drawn)
target.of.assay: KSP motor domain (Homo sapiens, UniProt P52732)
pIC50: 6.00 to 7.00

compound: CC(C)(C)[C@@H]1CCc2nc3sc(C(=O)N[C@H](CN)c4cccc(NCc5ccccc5)c4)cc3cc2C1
target.of.assay: KSP motor domain (Homo sapiens, UniProt P52732)
pIC50: > 7.00

compound: CC(C)(C)C1CCc2nc3sc(CC#N)cc3cc2C1 (stereo not drawn)
target.of.assay: KSP motor domain (Homo sapiens, UniProt P52732)
pIC50: 5.00 to 6.00

Prompt line: Data request, read-out pIC50, for CC(C)C(C)C1CCc2nc3sc(C#N)c(N)c3cc2C1 (stereo not drawn)
Response line: 6.00 to 7.00

Prompt line: # lookup: pIC50 of "CC(C)(C)[C@@H]1CCc2nc3sc(C(=O)N[C@H](CN)c4cccc(NC(=O)c5cn[nH]c5)c4)cc3cc2C1"
Response line: > 7.00

---

- target.of.assay: KSP motor domain (Homo sapiens, UniProt P52732)
- measurement.notes: biochemical
- test.settings: KSP inhibitory activity, end-point assay; class symbols (Table 1); read-out: IC50
pIC50: −log10 of the molar value.
observed.property: pIC50

Examples with their reported pIC50 follow.
molecule: CC(C)(C)C1CCc2nc3sc(-c4ncc(CN)[nH]4)cc3cc2C1 (stereo not drawn)
pIC50: 6.00 to 7.00
--
molecule: CC(C)(C)C1CCc2nc3sc(S(C)(=O)=O)cc3cc2C1 (stereo not drawn)
pIC50: 5.00 to 6.00
--
molecule: CC(C)(C)C1CCc2nc3c(cc2C1)c(N)c(C#N)[s+]3[O-] (stereo not drawn)
pIC50: 5.00 to 6.00

Prompt line: Return reported pIC50; argument: "CC(C)(C)[C@@H]1CCc2nc3sc(C(=O)N[C@H](CN)c4cccc(NC(=O)c5cnn[nH]5)c4)cc3cc2C1"
Response line: 6.00 to 7.00

Prompt line: Given CC(C)(C)C1CCc2nc3sc(C(=O)Nc4ccc(N)nc4)cc3cc2C1 (stereo not drawn) [Example 226J] , state its recorded pIC50.
Response line: 6.00 to 7.00

Prompt line: # input molecule: Cc1cccc([C@@H](CN)NC(=O)c2cc3cc4c(nc3s2)CCC(C(C)(C)C)C4)c1 (stereo partly drawn) ; wanted: its pIC50
Response line: > 7.00
